// reported EC50 for each item listed
target: ΔF508 CFTR (Homo sapiens, UniProt P13569, DEL508-508); test: Potentiator activity, YFP halide (iodide) quenching assay in FRT cells expressing ΔF508 CFTR, 27° C. pre-incubation; type: cell-based; parameters: expressed in transfected cells; host or cells: Fischer rat thyroid (FRT) cells; conditions: FRT cells ΔF508 CFTR/YFP, 24 hours at 27° C., compound with forskolin 30 min
Sequence (P13569 with tags, fused parts or gaps DEL508-508): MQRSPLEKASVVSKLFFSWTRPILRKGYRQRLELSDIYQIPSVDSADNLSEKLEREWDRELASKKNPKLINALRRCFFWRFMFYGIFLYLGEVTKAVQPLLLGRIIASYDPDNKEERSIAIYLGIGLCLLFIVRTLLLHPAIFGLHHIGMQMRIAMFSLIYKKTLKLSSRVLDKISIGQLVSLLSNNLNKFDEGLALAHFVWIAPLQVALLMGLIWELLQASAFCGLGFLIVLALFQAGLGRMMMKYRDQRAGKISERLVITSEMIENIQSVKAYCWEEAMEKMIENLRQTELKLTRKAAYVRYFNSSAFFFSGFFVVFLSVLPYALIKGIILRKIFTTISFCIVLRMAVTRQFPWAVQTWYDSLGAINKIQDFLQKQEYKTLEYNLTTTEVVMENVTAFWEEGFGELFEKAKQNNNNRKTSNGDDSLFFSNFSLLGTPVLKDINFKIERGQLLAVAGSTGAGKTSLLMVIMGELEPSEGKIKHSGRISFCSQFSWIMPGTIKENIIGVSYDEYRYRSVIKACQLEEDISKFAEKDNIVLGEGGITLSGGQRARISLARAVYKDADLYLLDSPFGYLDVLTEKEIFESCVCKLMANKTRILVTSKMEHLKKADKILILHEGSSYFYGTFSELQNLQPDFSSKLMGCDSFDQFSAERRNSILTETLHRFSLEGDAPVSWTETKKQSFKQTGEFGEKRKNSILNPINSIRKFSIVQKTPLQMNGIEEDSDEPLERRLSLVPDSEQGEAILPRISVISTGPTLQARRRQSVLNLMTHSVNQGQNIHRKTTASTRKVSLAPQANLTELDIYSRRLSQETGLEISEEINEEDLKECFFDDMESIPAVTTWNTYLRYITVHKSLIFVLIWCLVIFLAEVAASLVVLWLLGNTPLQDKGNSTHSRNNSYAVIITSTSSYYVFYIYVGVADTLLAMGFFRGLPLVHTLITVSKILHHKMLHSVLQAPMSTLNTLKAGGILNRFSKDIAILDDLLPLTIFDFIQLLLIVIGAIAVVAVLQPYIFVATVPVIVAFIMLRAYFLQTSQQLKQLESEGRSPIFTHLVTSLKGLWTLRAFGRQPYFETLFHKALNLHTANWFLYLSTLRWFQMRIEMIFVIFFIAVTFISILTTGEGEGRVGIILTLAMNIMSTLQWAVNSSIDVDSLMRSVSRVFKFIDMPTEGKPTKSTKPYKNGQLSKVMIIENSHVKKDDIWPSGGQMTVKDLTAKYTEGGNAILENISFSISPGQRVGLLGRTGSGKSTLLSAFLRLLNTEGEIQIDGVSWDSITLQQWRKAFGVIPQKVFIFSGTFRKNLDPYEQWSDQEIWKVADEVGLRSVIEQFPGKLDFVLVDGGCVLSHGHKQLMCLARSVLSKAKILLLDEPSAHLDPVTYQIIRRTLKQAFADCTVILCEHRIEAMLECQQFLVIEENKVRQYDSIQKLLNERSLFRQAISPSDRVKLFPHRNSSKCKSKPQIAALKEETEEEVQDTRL

Example compounds with recorded EC50:
Query block: Look up EC50 for this compound: Cc1ccc(-c2nn(C(C)(C)C)c3ncnc(NC(=O)c4ccc(F)cc4)c23)cc1
Result block: > 15 µM

Query block: Look up EC50 for this compound: Nc1ncnc2c1c(-c1ccc(Cl)cc1)nn2C1CCNCC1
Result block: > 15 µM

Query block: Look up EC50 for this compound: CC(C)N1CCC(n2nc(-c3ccc(Cl)cc3)c3c(N)ncnc32)CC1
Result block: > 15 µM

Further cases:
Query block: Look up EC50 for this compound: CC(C)(C)n1nc(Oc2ccc(C(=O)c3ccccc3)cc2)c2c(N)ncnc21
Result block: > 15 µM

Query block: Look up EC50 for this compound: Nc1ncnc2c1c(Oc1cccc(Cl)c1)nn2-c1ncccn1
Result block: > 15 µM

Query block: Look up EC50 for this compound: CC(=O)N1CC(n2nc(-c3ccc(Cl)cc3)c3c(N)ncnc32)C1
Result block: > 15 µM
